# procedure.details: Photostability assessed as residual absorbance at 2.5 mW/cm2 irradiation for 30 mins
# Format: physicochemical
# condition.info: read-out: Stability
quantity.kind: remaining at 0.5 h (%)
One number for each entry, in %.

Below: 5 compounds and their reported remaining at 0.5 h.
>  <smiles.data>
NCCCCN(CCCN)C(=O)CCCCNC(=O)c1ccc(-c2c3nc(c(-c4ccc(C(=O)NCCCCC(=O)N(CCCN)CCCCN)cc4)c4ccc([nH]4)c(-c4ccc(C(=O)NCCCCC(=O)N(CCCN)CCCCN)cc4)c4nc(c(-c5ccc(C(=O)NCCCCC(=O)N(CCCN)CCCCN)cc5)c5ccc2[nH]5)C=C4)C=C3)cc1

>  <remaining at 0.5 h / %>
99

$$$$
>  <smiles.data>
C=CC1=C(C)c2cc3[nH]c(cc4nc(cc5[nH]c(cc1n2)c(C)c5CCC(=O)NCCCCC(=O)N(CCCN)CCCCNCCCN)C(CCC(=O)NCCCCC(=O)N(CCCN)CCCCNCCCN)=C4C)c(C)c3C=C

>  <remaining at 0.5 h / %>
100

$$$$
>  <smiles.data>
Cc1cc(C)c(-c2c3nc(c(-c4ccc(C(=O)NCCCCC(=O)N(CCCN)CCCCN)cc4)c4ccc([nH]4)c(-c4c(C)cc(C)cc4C)c4nc(c(-c5ccc(C(=O)NCCCCC(=O)N(CCCN)CCCCN)cc5)c5ccc2[nH]5)C=C4)C=C3)c(C)c1

>  <remaining at 0.5 h / %>
100

$$$$
>  <smiles.data>
NCCCNCCCCN(CCCN)C(=O)CCCCNC(=O)c1ccc(-c2c3nc(c(-c4ccc(C(=O)NCCCCC(=O)N(CCCN)CCCCNCCCN)cc4)c4ccc([nH]4)c(-c4ccc(C(=O)NCCCCC(=O)N(CCCN)CCCCNCCCN)cc4)c4nc(c(-c5ccc(C(=O)NCCCCC(=O)N(CCCN)CCCCNCCCN)cc5)c5ccc2[nH]5)C=C4)C=C3)cc1

>  <remaining at 0.5 h / %>
100

$$$$
>  <smiles.data>
C=CC1=C(C)c2cc3[nH]c(cc4nc(cc5[nH]c(cc1n2)c(C)c5CCC(=O)NCCCCC(=O)N(CCCN)CCCCN)C(CCC(=O)NCCCCC(=O)N(CCCN)CCCCN)=C4C)c(C)c3C=C

>  <remaining at 0.5 h / %>
99

$$$$

Exercise: Can you look up the measured remaining at 0.5 h of `Cc1cc(C)c(-c2c3nc(c(-c4ccc(C(=O)NCCCCC(=O)N(CCCN)CCCCNCCCN)cc4)c4ccc([nH]4)c(-c4c(C)cc(C)cc4C)c4nc(c(-c5ccc(C(=O)NCCCCC(=O)N(CCCN)CCCCNCCCN)cc5)c5ccc2[nH]5)C=C4)C=C3)c(C)c1` for me?
Solution: 99

---

Would you mind telling me the reported Activity of each entry?
# Test system: Escherichia coli
# procedure.details: Induction of DNA photocleavage activity in Escherichia coli pBR322 plasmid assessed as linear DNA form at 10 uM after 120 mins irradiation at 2.5 mW/cm2 by gel electrophoresis
Give bare numbers, in %.

>  <smiles.data>
C=CC1=C(C)c2cc3[nH]c(cc4nc(cc5[nH]c(cc1n2)c(C)c5CCC(=O)NCCCCC(=O)N(CCCN)CCCCNCCCN)C(CCC(=O)NCCCCC(=O)N(CCCN)CCCCNCCCN)=C4C)c(C)c3C=C

>  <experimental.value>
2

$$$$
>  <smiles.data>
C=CC1=C(C)c2cc3[nH]c(cc4nc(cc5[nH]c(cc1n2)c(C)c5CCC(=O)NCCCCC(=O)N(CCCN)CCCCN)C(CCC(=O)NCCCCC(=O)N(CCCN)CCCCN)=C4C)c(C)c3C=C

>  <experimental.value>
4

$$$$
>  <smiles.data>
NCCCNCCCCN(CCCN)C(=O)CCCCNC(=O)c1ccc(-c2c3nc(c(-c4ccc(C(=O)NCCCCC(=O)N(CCCN)CCCCNCCCN)cc4)c4ccc([nH]4)c(-c4ccc(C(=O)NCCCCC(=O)N(CCCN)CCCCNCCCN)cc4)c4nc(c(-c5ccc(C(=O)NCCCCC(=O)N(CCCN)CCCCNCCCN)cc5)c5ccc2[nH]5)C=C4)C=C3)cc1

>  <experimental.value>
15

$$$$

Consider the record given below.
Exercise: For the molecule `NCCCCN(CCCN)C(=O)CCCCNC(=O)c1ccc(-c2c3nc(c(-c4ccc(C(=O)NCCCCC(=O)N(CCCN)CCCCN)cc4)c4ccc([nH]4)c(-c4ccc(C(=O)NCCCCC(=O)N(CCCN)CCCCN)cc4)c4nc(c(-c5ccc(C(=O)NCCCCC(=O)N(CCCN)CCCCN)cc5)c5ccc2[nH]5)C=C4)C=C3)cc1` , what Activity is on record?
Solution: 10
